assay: Cytotoxicity MTT assay in HeLa cells; type: cell-based; details: human, tetrazolium assay, read-out: CC50 (95% CL)
Quantity Kind: CC50 at 2 days (µM)
Reply numerically in µM, unit not repeated.

[
  {
    "Compound": "COc1ccc(C(C)=O)c(O)c1",
    "Quantity Kind": "CC50 at 2 days",
    "Units Text": "µM",
    "Assay Result": 3160
  },
  {
    "Compound": "O=C(OC[C@H]1O[C@@H](OC(=O)c2cc(O)c(O)c(O)c2)[C@H](OC(=O)c2cc(O)c(O)c(O)c2)[C@@H](OC(=O)c2cc(O)c(O)c(O)c2)[C@@H]1OC(=O)c1cc(O)c(O)c(O)c1)c1cc(O)c(O)c(O)c1",
    "Quantity Kind": "CC50 at 2 days",
    "Units Text": "µM",
    "Assay Result": 109
  },
  {
    "Compound": "O=C(O)c1cc(O)c(O)c(O)c1",
    "Quantity Kind": "CC50 at 2 days",
    "Units Text": "µM",
    "Assay Result": 1500
  }
]

q: Looking for the measured CC50 at 2 days of NC(=O)c1ncn([C@@H]2O[C@H](CO)[C@@H](O)[C@H]2O)n1 [Ribavirin, reference compound] , can you help?
a: 2340
